# tested-system: T1, Human CD3eg linker (human)
# T1 construct: Single-chain construct; also called recombinant human CD3
# T1 chain: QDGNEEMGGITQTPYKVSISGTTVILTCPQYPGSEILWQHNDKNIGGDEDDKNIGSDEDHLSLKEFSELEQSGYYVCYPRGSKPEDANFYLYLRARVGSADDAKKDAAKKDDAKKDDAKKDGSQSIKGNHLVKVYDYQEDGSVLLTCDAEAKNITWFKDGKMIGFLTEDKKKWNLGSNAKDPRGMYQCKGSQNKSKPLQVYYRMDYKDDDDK
# assay-notes: SPR; fold vs parent H183/L072
result-type: fold change of affinity (fold)
Answer with a number only, understood to be in fold.

These solved cases illustrate the format of a correct answer.
binder="H183/L072 VL M27eD (antibody, name in Kabat numbering, V domains shown) VH: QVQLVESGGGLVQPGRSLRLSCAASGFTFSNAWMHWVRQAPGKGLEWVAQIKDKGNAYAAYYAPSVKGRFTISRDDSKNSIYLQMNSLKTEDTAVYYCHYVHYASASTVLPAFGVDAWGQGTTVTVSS VL: DIVMTQSPLSLPVTPGEPASISCQASQELVHDNRNTYLHWYQQKPGQAPRLLIYKVSNRFPGVPDRFSGSGSGTDFTLKISRVEAEDVGVYYCAQGTSVPFTFGQGTKLEIK" recorded_measurement=0.8
binder="H183/L072 VL H34S (antibody, name in Kabat numbering, V domains shown) VH: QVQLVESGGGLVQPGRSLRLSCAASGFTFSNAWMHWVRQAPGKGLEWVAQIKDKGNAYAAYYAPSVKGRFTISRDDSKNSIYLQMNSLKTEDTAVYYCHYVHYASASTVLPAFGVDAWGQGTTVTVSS VL: DIVMTQSPLSLPVTPGEPASISCQASQELVHMNRNTYLSWYQQKPGQAPRLLIYKVSNRFPGVPDRFSGSGSGTDFTLKISRVEAEDVGVYYCAQGTSVPFTFGQGTKLEIK" recorded_measurement=0.5

Next up:
# get_value(readout='fold change of affinity', item= H183/L072 VL K50E (antibody, name in Kabat numbering, V domains shown) VH: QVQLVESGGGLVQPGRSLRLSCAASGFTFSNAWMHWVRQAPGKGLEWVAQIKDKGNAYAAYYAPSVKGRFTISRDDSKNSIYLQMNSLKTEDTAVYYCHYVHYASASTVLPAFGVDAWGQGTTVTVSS VL: DIVMTQSPLSLPVTPGEPASISCQASQELVHMNRNTYLHWYQQKPGQAPRLLIYEVSNRFPGVPDRFSGSGSGTDFTLKISRVEAEDVGVYYCAQGTSVPFTFGQGTKLEIK )
0
